Recorded values, source the supplement of paper PMC10567573.

Give protein stability index for every item shown.
B1: ZNF449 (parent)
chain: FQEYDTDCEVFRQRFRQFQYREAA

- Variants of: B1
- Assay Summary: protein stability index of a GFP-peptide fusion (GPS, HEK-293T) (PSI 1-6); higher = more stable;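 also: lentivirally expressed fusions sorted by FACS into six bins by GFP to DsRed ratio, PSI derived from sequencing read proportions per bin multiplied by bin number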
- Condition Notes: c terminus: a fixed tail appended
Please state the value as a number alone, without comment.

## Input State its protein stability index for this variant: F1R
## Output 2.43

## Input State its protein stability index for this variant: E22T
## Output 2.62

## Input State its protein stability index for this variant: Q19W
## Output 2.35
